The reported measurements were obtained from patent US20210087281A1.

Below: a set of entries, each annotated with reported phospho-MET ELISA EMAX (% HGF activity), A549 cells.
TARGET_UNDER_TEST: native human MET on living cells (human, UniProt P08581 25-1390)
Sequence (P08581 25-1390): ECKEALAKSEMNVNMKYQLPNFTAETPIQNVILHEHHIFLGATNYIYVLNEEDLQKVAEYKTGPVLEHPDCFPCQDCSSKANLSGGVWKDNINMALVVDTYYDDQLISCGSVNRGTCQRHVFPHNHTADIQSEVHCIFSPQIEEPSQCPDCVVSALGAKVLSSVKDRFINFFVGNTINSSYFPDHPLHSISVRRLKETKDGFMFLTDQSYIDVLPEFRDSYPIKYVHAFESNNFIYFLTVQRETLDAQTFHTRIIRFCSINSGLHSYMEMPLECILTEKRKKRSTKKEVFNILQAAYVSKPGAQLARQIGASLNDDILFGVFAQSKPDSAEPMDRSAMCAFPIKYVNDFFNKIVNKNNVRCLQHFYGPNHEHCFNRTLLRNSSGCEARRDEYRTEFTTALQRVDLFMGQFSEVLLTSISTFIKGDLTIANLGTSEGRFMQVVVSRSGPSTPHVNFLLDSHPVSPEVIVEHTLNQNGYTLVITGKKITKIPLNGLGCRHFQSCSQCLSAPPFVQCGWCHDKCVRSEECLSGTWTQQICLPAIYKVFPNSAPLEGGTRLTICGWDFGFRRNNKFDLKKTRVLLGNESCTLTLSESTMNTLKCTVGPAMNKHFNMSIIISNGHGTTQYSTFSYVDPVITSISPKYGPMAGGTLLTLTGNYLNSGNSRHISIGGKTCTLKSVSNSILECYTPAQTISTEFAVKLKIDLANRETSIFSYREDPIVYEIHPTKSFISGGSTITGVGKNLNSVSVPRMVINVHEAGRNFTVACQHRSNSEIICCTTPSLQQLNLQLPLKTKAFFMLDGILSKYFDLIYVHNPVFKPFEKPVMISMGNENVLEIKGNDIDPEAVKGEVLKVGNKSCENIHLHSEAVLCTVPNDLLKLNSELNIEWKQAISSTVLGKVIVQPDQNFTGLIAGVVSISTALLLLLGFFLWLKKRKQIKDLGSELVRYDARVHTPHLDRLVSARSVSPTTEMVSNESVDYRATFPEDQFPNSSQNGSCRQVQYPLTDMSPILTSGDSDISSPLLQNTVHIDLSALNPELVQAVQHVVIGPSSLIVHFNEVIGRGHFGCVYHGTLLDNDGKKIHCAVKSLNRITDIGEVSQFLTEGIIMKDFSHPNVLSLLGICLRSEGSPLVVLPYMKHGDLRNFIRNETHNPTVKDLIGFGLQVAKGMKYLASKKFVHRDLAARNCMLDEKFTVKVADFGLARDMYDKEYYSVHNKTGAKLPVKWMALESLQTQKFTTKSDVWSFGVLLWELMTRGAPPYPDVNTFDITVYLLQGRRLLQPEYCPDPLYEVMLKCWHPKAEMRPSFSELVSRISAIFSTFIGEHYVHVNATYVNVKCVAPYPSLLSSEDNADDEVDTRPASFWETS
ASSAY_OVERVIEW: cell-based or functional assay
API: value field is a number in %; no unit string.

input: Give the measured phospho-MET ELISA EMAX (% HGF activity), A549 cells of 74C8 chimeric llama-human IgG1 mAb (antibody, V domains shown, llama VH on human IgG1 CH1-CH2-CH3, llama VL on human lambda CL) VH: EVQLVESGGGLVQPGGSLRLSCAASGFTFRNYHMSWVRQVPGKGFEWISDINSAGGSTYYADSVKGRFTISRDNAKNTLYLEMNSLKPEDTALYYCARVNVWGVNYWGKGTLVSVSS VL: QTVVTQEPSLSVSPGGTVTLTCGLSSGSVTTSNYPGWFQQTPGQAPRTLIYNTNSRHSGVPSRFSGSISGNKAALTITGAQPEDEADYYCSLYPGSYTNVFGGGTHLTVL .
output: 87.6

input: Quick one: phospho-MET ELISA EMAX (% HGF activity), A549 cells for 76H10 chimeric llama-human IgG1 mAb (antibody, V domains shown, llama VH on human IgG1 CH1-CH2-CH3, llama VL on human lambda CL) VH: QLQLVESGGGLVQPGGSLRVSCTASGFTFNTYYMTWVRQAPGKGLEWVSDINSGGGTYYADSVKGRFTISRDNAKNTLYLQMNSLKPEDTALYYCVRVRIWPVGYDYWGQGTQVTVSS VL: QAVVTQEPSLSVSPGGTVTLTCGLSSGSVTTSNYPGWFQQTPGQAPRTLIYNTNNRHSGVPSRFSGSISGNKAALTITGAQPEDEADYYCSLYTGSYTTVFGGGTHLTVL ?
output: 61.2

input: Name the recorded phospho-MET ELISA EMAX (% HGF activity), A549 cells for 71C3 chimeric llama-human IgG1 mAb (antibody, V domains shown, llama VH on human IgG1 CH1-CH2-CH3, llama VL on human lambda CL) VH: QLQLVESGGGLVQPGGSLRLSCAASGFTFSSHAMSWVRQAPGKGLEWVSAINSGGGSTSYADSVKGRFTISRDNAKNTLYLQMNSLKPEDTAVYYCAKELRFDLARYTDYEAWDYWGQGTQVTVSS VL: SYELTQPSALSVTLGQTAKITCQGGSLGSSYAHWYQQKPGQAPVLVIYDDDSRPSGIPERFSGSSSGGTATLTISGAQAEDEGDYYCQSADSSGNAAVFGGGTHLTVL .
output: 86.2
